- Target System: Alkaline phosphatase, tissue-nonspecific isozyme (Homo sapiens) (UniProt P05186)
- Sequence (P05186 whole entry, looked up): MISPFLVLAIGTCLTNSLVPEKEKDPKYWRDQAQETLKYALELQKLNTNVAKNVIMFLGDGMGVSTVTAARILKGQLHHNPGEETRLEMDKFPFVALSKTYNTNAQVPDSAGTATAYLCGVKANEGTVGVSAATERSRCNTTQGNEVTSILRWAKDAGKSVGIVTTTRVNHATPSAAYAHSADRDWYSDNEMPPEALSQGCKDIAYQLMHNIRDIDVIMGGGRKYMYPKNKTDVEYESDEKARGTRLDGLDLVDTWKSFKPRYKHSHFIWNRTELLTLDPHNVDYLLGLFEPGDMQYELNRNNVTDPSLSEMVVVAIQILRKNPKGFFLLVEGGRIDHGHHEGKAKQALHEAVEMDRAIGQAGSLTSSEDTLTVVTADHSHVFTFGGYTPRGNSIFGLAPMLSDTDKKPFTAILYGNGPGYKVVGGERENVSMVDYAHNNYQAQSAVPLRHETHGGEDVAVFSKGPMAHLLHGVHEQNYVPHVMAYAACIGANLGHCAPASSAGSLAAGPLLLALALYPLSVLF
- Test Details: human TNAP enzyme inhibitors, primary screen, biochemical, luminescent, no phosphate acceptor, uHTS (AID 1012);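 further: 0% = DMSO negative control and 100% = EDTA positive control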
- Experimental Setup: purified TNAP, CDP-star luminescence, 30 min; at 20 µM
Hit rate of the full screen: of about 200,000 compounds, about 520 (0.26%) were called active.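 How the source made its calls: active means tissue-nonspecific alkaline phosphatase inhibition above about 50% at 20 µM in the single-dose screen (limit read from the data); inactive means the rest.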 The sample holds actives, similar compounds and a random draw of the others, so the mix is not that of the screen.
Outcomes: label 1 = active, label 0 = inactive

>  <Compound>
CS(=O)(=O)n1nc(-c2ccccc2)nc1NCc1ccco1

>  <Class>
label 0

$$$$
>  <Compound>
Cc1ccc(S(=O)(=O)N2CCN(C(=O)c3cccs3)CC2)cc1

>  <Class>
label 0

$$$$
>  <Compound>
Cc1ccc(CN2CCN(Cc3cn(C)nc3-c3ccccc3)CC2CCO)o1 (stereo not given)

>  <Class>
label 0

$$$$
>  <Compound>
CC(=O)N1C(C)c2ccccc2C(C)(C)CC12CCCCC2 (stereo not given)

>  <Class>
label 0

$$$$
>  <Compound>
CC1CCN(CC(=O)c2c[nH]c3ccccc23)CC1

>  <Class>
label 0

$$$$
>  <Compound>
COc1ccc(N2C(=O)CC(Nc3ccc(F)cc3)C2=O)c([N+](=O)[O-])c1 (stereo not given)

>  <Class>
label 0

$$$$
>  <Compound>
CCn1c(SCc2ccccc2)nc2c(c1=O)SCC2

>  <Class>
label 0

$$$$
>  <Compound>
COc1ccc(-c2noc(CN(C)S(=O)(=O)c3ccc(C)cc3)n2)cc1

>  <Class>
label 0

$$$$
>  <Compound>
CCS(=O)(=O)n1nc(-c2ccccc2)nc1SCc1ccccc1

>  <Class>
label 1

$$$$
>  <Compound>
COc1ccc(-n2c(SC)nc(O)cc2=O)cc1

>  <Class>
label 0

$$$$
>  <Compound>
O=Cc1ccc(Oc2cccc(C(F)(F)F)c2)nc1

>  <Class>
label 0

$$$$
>  <Compound>
CCCc1[nH]nc2c1C(C1CC=CCC1)C(C#N)=C(N)O2 (stereo not given)

>  <Class>
label 1

$$$$
>  <Compound>
CCOc1cc(/C=C(/C#N)c2ccc(Cl)cc2)cc(Cl)c1OCC(=O)O

>  <Class>
label 0

$$$$
>  <Compound>
O=C(C(=O)N1CCc2ccccc2C1)c1c[nH]c2ccccc12

>  <Class>
label 1

$$$$
>  <Compound>
O=C(C(=O)N1CCc2ccccc2C1)N1CCc2ccccc2C1

>  <Class>
label 0

$$$$

----------
- Target System: Alkaline phosphatase, tissue-nonspecific isozyme (Homo sapiens) (UniProt P05186)
- Test Details: human TNAP enzyme inhibitors, primary screen, biochemical, luminescent, no phosphate acceptor, uHTS (AID 1012);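 further: 0% = DMSO negative control and 100% = EDTA positive control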
- Experimental Setup: purified TNAP, CDP-star luminescence, 30 min; at 20 µM; stronger effect = higher value
About 520 (0.26%) of roughly 200,000 compounds were called active. This excerpt belongs to a sample that is enriched for actives.
Metric Name: inhibition (%)

>  <Molecule>
CCOc1ccc2nc(C(=O)N3CCCC(C)C3)sc2c1 (stereo not given)

>  <Obs Value>
1.7

$$$$
>  <Molecule>
COc1cccc(NC(=O)CS(=O)(=O)c2cn(CC(=O)N3CCOCC3)c3ccccc23)c1

>  <Obs Value>
-14.3

$$$$
>  <Molecule>
Cc1ccccc1NC(=O)c1nn(-c2ccc(F)c(F)c2)ccc1=O

>  <Obs Value>
-8.3

$$$$
>  <Molecule>
CC1Cc2ccccc2N1C(=O)CSc1nnc(-c2ccc(S(=O)(=O)N3CCCC3)cc2)n1C (stereo not given)

>  <Obs Value>
-5.8

$$$$
>  <Molecule>
COC(=O)[C@H]1Cc2cnoc2C[C@]1(C)C(=O)O

>  <Obs Value>
-8

$$$$
>  <Molecule>
CCOC(=O)c1c(NC(=O)C2CCN(S(=O)(=O)c3ccc(Cl)cc3)CC2)sc2c1CCCC2

>  <Obs Value>
-6

$$$$
>  <Molecule>
O=C1CSC(c2ccccc2)N1c1nc(-c2ccc(Cl)cc2Cl)cs1 (stereo not given)

>  <Obs Value>
-10

$$$$
>  <Molecule>
CC(=O)NCC(=O)N1CCCC(C(=O)c2ccc3c4c(cccc24)CC3)C1 (stereo not given)

>  <Obs Value>
-8.9

$$$$
>  <Molecule>
CN(Cc1cc2cc(F)ccc2[nH]1)Cc1nc(-c2cnccn2)no1

>  <Obs Value>
-8.7

$$$$
>  <Molecule>
Cc1ccccc1C(=O)Nc1ccc(N2CCCCCC2)cc1

>  <Obs Value>
-10.8

$$$$
